Values compiled from ChEMBL document CHEMBL1154121.

Read-out record for Aspartic protease PM4 (Plasmodium vivax, UniProt O60989): Ki
experimentalReadout: Ki (nM)

>>> experimentalresult("Cc1cccc(C)c1OCC(=O)NC[C@](O)(Cc1ccccc1)C(=O)N1CSC(C)(C)[C@@H]1C(=O)N[C@H]1c2ccccc2C[C@H]1O")
120
>>> experimentalresult("Cc1cccc(C)c1OCC(=O)NCC(O)(CCc1ccccc1)C(=O)N1CCC[C@H]1C(=O)N[C@H]1c2ccccc2C[C@H]1O (stereo in doubt; (B)-19)")
1300
>>> experimentalresult("Cc1cccc(C)c1OCC(=O)NC[C@@](O)(CCc1ccccc1)C(=O)N1CSC(C)(C)[C@@H]1C(=O)N[C@H]1c2ccccc2C[C@H]1O")
390
>>> experimentalresult("Cc1cccc(C)c1OCC(=O)NC[C@@](O)(Cc1ccccc1)C(=O)N1CSC(C)(C)[C@H]1C(=O)N[C@H]1c2ccccc2C[C@H]1O")
160
>>> experimentalresult("Cc1cccc(C)c1OCC(=O)NC[C@](O)(Cc1ccccc1)C(=O)N1CSC(C)(C)[C@H]1C(=O)N[C@H]1c2ccccc2C[C@H]1O")
190

====

target: Plasmepsin I (Plasmodium falciparum)
Sequence (P39898 whole entry): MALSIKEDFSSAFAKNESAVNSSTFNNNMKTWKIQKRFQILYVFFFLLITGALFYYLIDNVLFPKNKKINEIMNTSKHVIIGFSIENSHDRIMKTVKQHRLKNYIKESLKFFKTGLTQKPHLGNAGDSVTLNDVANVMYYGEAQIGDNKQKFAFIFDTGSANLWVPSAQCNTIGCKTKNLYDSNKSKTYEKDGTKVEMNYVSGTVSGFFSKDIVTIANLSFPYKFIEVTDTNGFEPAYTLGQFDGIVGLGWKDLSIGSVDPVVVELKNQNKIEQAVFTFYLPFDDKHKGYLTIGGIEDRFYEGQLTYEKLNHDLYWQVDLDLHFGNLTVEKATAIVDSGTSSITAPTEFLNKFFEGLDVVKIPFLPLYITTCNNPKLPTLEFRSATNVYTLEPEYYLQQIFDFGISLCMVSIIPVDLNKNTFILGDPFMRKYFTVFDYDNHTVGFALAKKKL
pIC50: −log10 of the molar value.
experimentalReadout: pIC50

>>> experimentalresult("Cc1cccc(C)c1OCC(=O)N[C@@H](Cc1ccccc1)[C@H](O)C(=O)N1CSC(C)(C)[C@H]1C(=O)N[C@H]1c2ccccc2C[C@H]1O")
6.55

====

target: Beta-secretase 1 (Homo sapiens) (UniProt P56817); test: Inhibition of human BACE1 at < 10 uM
Sequence (P56817 whole entry): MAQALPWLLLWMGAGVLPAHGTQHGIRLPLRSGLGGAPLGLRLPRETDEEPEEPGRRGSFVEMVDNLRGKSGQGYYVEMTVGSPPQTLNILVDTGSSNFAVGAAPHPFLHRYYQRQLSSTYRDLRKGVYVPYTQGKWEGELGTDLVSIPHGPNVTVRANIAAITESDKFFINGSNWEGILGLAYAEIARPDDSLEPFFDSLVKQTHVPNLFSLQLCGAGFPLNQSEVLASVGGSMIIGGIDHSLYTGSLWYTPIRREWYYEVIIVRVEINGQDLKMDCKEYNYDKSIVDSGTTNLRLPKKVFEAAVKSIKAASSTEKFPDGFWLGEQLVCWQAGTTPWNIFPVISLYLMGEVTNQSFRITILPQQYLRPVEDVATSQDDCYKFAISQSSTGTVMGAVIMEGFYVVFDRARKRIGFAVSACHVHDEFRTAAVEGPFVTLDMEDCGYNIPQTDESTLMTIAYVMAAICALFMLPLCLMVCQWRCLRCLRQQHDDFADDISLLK
Active and inactive are the calls of the source. The rule behind the calls is not given here.
experimentalReadout: Activity

>>> experimentalresult("Cc1cccc(C)c1OCC(=O)NC[C@](O)(Cc1ccccc1)C(=O)N1CSC(C)(C)[C@@H]1C(=O)N[C@H]1c2ccccc2C[C@H]1O")
"inactive"
>>> experimentalresult("Cc1cccc(C)c1OCC(=O)NC[C@@](O)(Cc1ccccc1)C(=O)N1CSC(C)(C)[C@@H]1C(=O)N[C@H]1c2ccccc2C[C@H]1O")
"inactive"
>>> experimentalresult("Cc1cccc(C)c1OCC(=O)NCC(O)(CCc1ccccc1)C(=O)N[C@@H](Cc1ccccc1)C(=O)N[C@H]1c2ccccc2C[C@H]1O (stereo in doubt; (B)-20)")
"inactive"

====

target: Beta-secretase 1 (Homo sapiens); assay: Inhibition of human BACE1 at < 10 uM
The source made the active and inactive calls. The rule behind the calls is not given here.
experimentalReadout: Activity

>>> experimentalresult("Cc1cccc(C)c1OCC(=O)NC[C@](O)(Cc1ccccc1)C(=O)N1CSC(C)(C)[C@H]1C(=O)N[C@H]1c2ccccc2C[C@H]1O")
"inactive"
>>> experimentalresult("Cc1cccc(C)c1OCC(=O)NCC(O)(CCc1ccccc1)C(=O)N[C@@H](Cc1ccccc1)C(=O)N[C@H]1c2ccccc2C[C@H]1O (stereo in doubt; (A)-20)")
"inactive"
>>> experimentalresult("Cc1cccc(C)c1OCC(=O)NC[C@@](O)(Cc1ccccc1)C(=O)N1CSC(C)(C)[C@H]1C(=O)N[C@H]1c2ccccc2C[C@H]1O")
"inactive"

====

target: Plasmepsin II (Plasmodium falciparum)
Sequence (P46925 whole entry): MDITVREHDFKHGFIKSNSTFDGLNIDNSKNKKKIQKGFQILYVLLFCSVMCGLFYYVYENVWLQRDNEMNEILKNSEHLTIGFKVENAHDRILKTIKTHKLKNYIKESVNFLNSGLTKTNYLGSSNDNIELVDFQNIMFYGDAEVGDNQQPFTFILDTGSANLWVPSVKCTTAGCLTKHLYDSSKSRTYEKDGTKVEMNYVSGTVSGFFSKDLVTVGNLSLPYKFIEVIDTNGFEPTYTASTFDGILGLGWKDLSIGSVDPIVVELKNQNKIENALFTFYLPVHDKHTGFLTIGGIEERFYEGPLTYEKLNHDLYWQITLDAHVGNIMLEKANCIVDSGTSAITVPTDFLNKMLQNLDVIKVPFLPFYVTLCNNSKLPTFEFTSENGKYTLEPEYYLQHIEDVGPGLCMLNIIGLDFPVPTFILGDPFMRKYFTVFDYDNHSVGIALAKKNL
List of Ki values.
experimentalReadout: Ki (nM)

>>> experimentalresult("Cc1cccc(C)c1OCC(=O)NC[C@](O)(Cc1ccccc1)C(=O)N1CSC(C)(C)[C@@H]1C(=O)N[C@H]1c2ccccc2C[C@H]1O")
1700
>>> experimentalresult("Cc1cccc(C)c1OCC(=O)NC[C@@](O)(CCc1ccccc1)C(=O)N1CSC(C)(C)[C@H]1C(=O)N[C@H]1c2ccccc2C[C@H]1O")
1400
>>> experimentalresult("Cc1cccc(C)c1OCC(=O)NC[C@@](O)(Cc1ccccc1)C(=O)N1CSC(C)(C)[C@@H]1C(=O)N[C@H]1c2ccccc2C[C@H]1O")
830
